- Target Or Test System: UniProt:P06493
- Sequence (P06493 whole entry, looked up): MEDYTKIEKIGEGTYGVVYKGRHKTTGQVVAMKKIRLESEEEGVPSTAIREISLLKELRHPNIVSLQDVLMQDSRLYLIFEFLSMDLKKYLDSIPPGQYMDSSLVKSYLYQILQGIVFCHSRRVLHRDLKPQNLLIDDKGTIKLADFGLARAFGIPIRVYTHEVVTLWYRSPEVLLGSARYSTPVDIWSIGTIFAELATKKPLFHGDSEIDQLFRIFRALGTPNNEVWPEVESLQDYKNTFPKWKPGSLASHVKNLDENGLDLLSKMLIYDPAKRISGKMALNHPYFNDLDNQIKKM
- Experiment Description: Inhibition of human CDK1 by DELFIA assay
Outcome Measure: IC50 (nM)
Report as a plain number; the unit nM is understood.

Problem: State the recorded IC50 for this entry: `N#Cc1cnc(Nc2cc(NC[C@H]3CNCCO3)c(C(F)(F)F)cn2)cn1`
Result: 2440

###

- Target Or Test System: Phosphorylase b kinase gamma catalytic chain, skeletal muscle/heart isoform (Homo sapiens, UniProt Q16816)
- Sequence (Q16816 whole entry, canonical isoform): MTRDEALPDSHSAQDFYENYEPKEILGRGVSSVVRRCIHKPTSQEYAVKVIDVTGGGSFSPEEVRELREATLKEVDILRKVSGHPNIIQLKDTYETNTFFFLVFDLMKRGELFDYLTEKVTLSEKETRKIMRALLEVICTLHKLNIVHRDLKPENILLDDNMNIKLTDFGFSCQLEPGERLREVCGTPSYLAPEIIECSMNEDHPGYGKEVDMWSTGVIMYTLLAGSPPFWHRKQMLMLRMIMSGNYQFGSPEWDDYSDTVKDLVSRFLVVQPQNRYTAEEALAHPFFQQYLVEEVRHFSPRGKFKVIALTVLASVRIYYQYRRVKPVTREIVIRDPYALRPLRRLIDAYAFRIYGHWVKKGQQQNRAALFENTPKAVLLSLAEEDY
- Experiment Description: Inhibition of PHKG1 (unknown origin) by FRET based Z-LYTE kinase assay
Outcome Measure: pIC50
Scale: pIC50 equals -log10([C]), with [C] in mol/L.

Problem: State the recorded pIC50 for this entry: `N#Cc1cnc(Nc2cc(NC[C@H]3CNCCO3)c(C(F)(F)F)cn2)cn1`
Result: 5.46

###

- Experiment Description: Half life in BALB/C mouse spleen at 10 mg/kg, iv by LC/MS-MS analysis
- Type: ADME, organism-based
Outcome Measure: half-life (h)
Report as a plain number; the unit h is understood.

Problem: State the recorded half-life for this entry: `N#Cc1cnc(Nc2cc(NC[C@H]3CNCCO3)c(C(F)(F)F)cn2)cn1`
Result: 2.76

###

- Target Or Test System: AMP-activated protein kinase (AMPK) alpha-1/beta-1/gamma-1 (Homo sapiens, UniProt P54619+Q13131+Q9Y478)
- Sequence (P54619 whole entry): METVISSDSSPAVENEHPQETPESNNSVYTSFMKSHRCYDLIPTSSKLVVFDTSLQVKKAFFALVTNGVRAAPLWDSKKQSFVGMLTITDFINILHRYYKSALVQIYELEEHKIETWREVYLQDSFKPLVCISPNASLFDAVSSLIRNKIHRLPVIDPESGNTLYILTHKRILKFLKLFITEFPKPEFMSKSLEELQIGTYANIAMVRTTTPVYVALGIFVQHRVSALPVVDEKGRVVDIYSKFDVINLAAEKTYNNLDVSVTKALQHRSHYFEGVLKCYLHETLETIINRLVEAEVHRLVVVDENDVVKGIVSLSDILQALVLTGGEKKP
- Sequence (Q9Y478 whole entry): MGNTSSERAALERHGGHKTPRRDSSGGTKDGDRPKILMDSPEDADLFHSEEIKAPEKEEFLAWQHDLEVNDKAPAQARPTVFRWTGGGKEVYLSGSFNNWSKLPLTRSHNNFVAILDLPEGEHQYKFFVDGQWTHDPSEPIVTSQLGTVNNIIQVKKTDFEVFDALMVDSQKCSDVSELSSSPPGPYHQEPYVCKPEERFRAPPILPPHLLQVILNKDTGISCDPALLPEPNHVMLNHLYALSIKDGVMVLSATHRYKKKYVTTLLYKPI
- Sequence (Q13131 whole entry): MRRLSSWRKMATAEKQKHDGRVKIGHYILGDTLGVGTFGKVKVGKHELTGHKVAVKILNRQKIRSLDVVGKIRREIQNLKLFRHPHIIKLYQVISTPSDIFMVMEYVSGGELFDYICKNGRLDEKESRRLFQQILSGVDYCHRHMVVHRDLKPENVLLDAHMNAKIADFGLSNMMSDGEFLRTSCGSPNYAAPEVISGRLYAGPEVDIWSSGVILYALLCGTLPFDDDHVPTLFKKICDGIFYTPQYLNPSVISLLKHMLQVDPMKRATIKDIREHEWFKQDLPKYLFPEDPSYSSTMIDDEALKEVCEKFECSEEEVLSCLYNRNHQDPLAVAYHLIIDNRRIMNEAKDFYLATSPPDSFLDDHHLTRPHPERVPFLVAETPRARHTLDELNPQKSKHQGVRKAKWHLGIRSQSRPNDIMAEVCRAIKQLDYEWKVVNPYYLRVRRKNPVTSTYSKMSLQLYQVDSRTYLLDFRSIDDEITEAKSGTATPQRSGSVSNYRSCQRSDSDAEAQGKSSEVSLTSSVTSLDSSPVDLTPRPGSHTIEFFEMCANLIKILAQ
- Experiment Description: Inhibition of AMPK alpha1/beta1/gamma1 (unknown origin) by FRET based Z-LYTE kinase assay
Outcome Measure: IC50
Answer format: value, then unit.

Problem: State the recorded IC50 for this entry: `N#Cc1cnc(Nc2cc(NC[C@H]3CNCCO3)c(C(F)(F)F)cn2)cn1`
Result: 2.97 µM

###

- Experiment Description: Cmax in BALB/C mouse spleen at 10 mg/kg, po by LC/MS-MS analysis
- Format: ADME, organism-based
Outcome Measure: Cmax

Problem: State the recorded Cmax for this entry: `N#Cc1cnc(Nc2cc(NC[C@H]3CNCCO3)c(C(F)(F)F)cn2)cn1`
Result: 30.1 µM

###

- Experiment Description: Tmax in BALB/C mouse spleen at 10 mg/kg, iv by LC/MS-MS analysis
- Type: ADME, organism-based
Outcome Measure: Tmax (min)
Report as a plain number; the unit min is understood.

Problem: State the recorded Tmax for this entry: `N#Cc1cnc(Nc2cc(NC[C@H]3CNCCO3)c(C(F)(F)F)cn2)cn1`
Result: 30

###

- Experiment Description: Tmax in BALB/C mouse plasma at 10 mg/kg, iv by LC/MS-MS analysis
- Assay type: ADME, organism-based
Outcome Measure: Tmax
Answer format: value, then unit.

Problem: State the recorded Tmax for this entry: N#Cc1cnc(Nc2cc(NC[C@H]3CNCCO3)c(C(F)(F)F)cn2)cn1 [SRA-737]
Result: 4.98 min

###

- Target Or Test System: Serine/threonine-protein kinase D1 (Homo sapiens, UniProt Q15139)
- Sequence (Q15139 whole entry): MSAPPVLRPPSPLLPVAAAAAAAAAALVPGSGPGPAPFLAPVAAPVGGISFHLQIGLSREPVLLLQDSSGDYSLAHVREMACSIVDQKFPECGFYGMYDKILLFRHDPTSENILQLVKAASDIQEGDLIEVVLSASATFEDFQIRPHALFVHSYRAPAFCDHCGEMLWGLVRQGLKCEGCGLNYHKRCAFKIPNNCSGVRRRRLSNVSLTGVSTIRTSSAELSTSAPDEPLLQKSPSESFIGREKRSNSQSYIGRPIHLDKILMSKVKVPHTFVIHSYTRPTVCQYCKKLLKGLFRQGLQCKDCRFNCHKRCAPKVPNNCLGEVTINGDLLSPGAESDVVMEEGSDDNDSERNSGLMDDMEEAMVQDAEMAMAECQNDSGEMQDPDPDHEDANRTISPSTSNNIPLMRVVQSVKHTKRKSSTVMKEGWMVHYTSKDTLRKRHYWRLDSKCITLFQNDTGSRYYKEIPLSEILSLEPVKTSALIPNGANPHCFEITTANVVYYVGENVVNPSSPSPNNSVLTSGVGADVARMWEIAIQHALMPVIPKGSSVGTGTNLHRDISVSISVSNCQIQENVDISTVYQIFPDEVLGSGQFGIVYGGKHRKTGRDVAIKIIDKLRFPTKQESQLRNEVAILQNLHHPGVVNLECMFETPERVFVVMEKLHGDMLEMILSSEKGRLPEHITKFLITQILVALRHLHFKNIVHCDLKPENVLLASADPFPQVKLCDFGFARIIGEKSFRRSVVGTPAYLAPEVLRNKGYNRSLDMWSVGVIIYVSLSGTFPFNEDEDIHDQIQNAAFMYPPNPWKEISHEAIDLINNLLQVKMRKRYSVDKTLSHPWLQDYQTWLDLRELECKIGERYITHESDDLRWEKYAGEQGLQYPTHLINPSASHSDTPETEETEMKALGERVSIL
- Experiment Description: Inhibition of PRKD1 (unknown origin) by 33P radiometric kinase assay
Outcome Measure: pIC50
Scale: pIC50 equals -log10([C]), with [C] in mol/L.

Problem: State the recorded pIC50 for this entry: N#Cc1cnc(Nc2cc(NC[C@H]3CNCCO3)c(C(F)(F)F)cn2)cn1 [SRA-737]
Result: 6.53
